Give measured half-life for each item. Keep answers brief.
run_description: Pharmacokinetics in SD rats, single intravenous injection and oral administration
Format: in vivo, SD rat
condition_label: SD, rat, whole blood, IV 3 mg/kg
Be sure to follow the number with its unit.

Look over these answered cases.
Returns the measured half-life for the input compound. Input: CN1CCC[C@@H]1/C=C/C(=O)Nc1ccc2ncnc(Nc3ccc(OCc4ccccn4)c(Cl)c3)c2c1 [Control compound 1, reference compound]
4.91 h

Returns the measured half-life for the input compound. Input: CCOc1cc2ncc(C#N)c(Nc3ccc(OCc4ccccn4)c(Cl)c3)c2cc1NC(=O)/C=C/[C@H]1CCCN1C [PYROTINIB, pyrotinib, reference compound]
3.45 h

Returns the measured half-life for the input compound. Input: COc1c(NC(=O)/C=C/[C@H]2CCCN2C)ccc2ncnc(Nc3ccc(OCc4ccccn4)c(Cl)c3)c12
4.5 h

Returns the measured half-life for the input compound. Input: COc1c(NC(=O)/C=C/[C@H]2CCCN2C(C)C)ccc2ncnc(Nc3ccc(OCc4ccccn4)c(Cl)c3)c12
5.01 h

Returns the measured half-life for the input compound. Input: CCCOc1c(NC(=O)/C=C/[C@H]2CCCN2C)ccc2ncnc(Nc3ccc(OCc4ccccn4)c(Cl)c3)c12
4.12 h

Returns the measured half-life for the input compound. Input: COCCCOc1c(NC(=O)/C=C/[C@H]2CCCN2C)ccc2ncnc(Nc3ccc(OCc4ccccn4)c(Cl)c3)c12
3.94 h

Returns the measured half-life for the input compound. Input: CN1CCC[C@H]1/C=C/C(=O)Nc1ccc2ncnc(Nc3ccc(OCc4ccccn4)c(Cl)c3)c2c1 [Control compound 2, reference compound]
6.5 h

Okay, now this compound:
Returns the measured half-life for the input compound. Input: CCN1CCC[C@@H]1/C=C/C(=O)Nc1ccc2ncnc(Nc3ccc(OCc4ccccn4)c(Cl)c3)c2c1OC
4.86 h

###

Give measured concentration at 2 h for each item. Keep answers brief.
run_description: Brain tissue and whole blood concentration in SD rats after oral administration
Assay type: in vivo
condition_label: rat, brain, PO 10 mg/kg, 2 h after administration, NA: Exposure was too low to be counted, read-out: Brain tissue concentration
Procedure: In this assay, the pharmacokinetic characteristics of the compounds of the present application were assayed after administration of some of the compounds of the present application to SD rats by single oral administration and intravenous injection. 2. […] The mixture was stirred, vortexed and/or sonicated. […] The supernatant was diluted 2-fold with ultra-pure water, and the samples were analyzed by LC/MS. […]
Be sure to follow the number with its unit.

Look over these answered cases.
Returns the measured concentration at 2 h for the input molecule. Input: CCOc1cc2ncc(C#N)c(Nc3ccc(OCc4ccccn4)c(Cl)c3)c2cc1NC(=O)/C=C/CN(C)C [NERATINIB, neratinib, reference compound]
14.4 ng/g

Returns the measured concentration at 2 h for the input molecule. Input: CCN1CCC[C@@H]1/C=C/C(=O)Nc1ccc2ncnc(Nc3ccc(OCc4ccccn4)c(Cl)c3)c2c1OC
43.5 ng/g

Returns the measured concentration at 2 h for the input molecule. Input: CCCOc1c(NC(=O)/C=C/[C@H]2CCCN2C)ccc2ncnc(Nc3ccc(OCc4ccccn4)c(Cl)c3)c12
127 ng/g

Okay, now this molecule:
Returns the measured concentration at 2 h for the input molecule. Input: CCOc1cc2ncc(C#N)c(Nc3ccc(OCc4ccccn4)c(Cl)c3)c2cc1NC(=O)/C=C/[C@H]1CCCN1C [PYROTINIB, pyrotinib, reference compound]
25.8 ng/g

###

Tested on: Ba/F3 ERBB2 A775_G776insYVMA
run_description: Efficacy in nude mouse tumor-bearing model of Ba/F3 ERBB2 A775_G776insYVMA
Type: in vivo, BALB/c nude mice
condition_label: 30 mg/kg, QD×14, PO; day 14
quantity: T/C (%)
Give bare numbers, in %.

Returns the measured T/C (%) for the input compound. Input: CCOc1cc2ncc(C#N)c(Nc3ccc(OCc4ccccn4)c(Cl)c3)c2cc1NC(=O)/C=C/CN(C)C [NERATINIB, neratinib, reference compound]
45.9

Batch request: T/C (%) per item, same order as input.
1. COc1c(NC(=O)/C=C/[C@H]2CCCN2C(C)C)ccc2ncnc(Nc3ccc(OCc4ccccn4)c(Cl)c3)c12 [Example 24]
2. COc1c(NC(=O)/C=C/[C@H]2CCCN2C)ccc2ncnc(Nc3ccc(OCc4ccccn4)c(Cl)c3)c12 [Example 4]

12.4
2.6

Returns the measured T/C (%) for the input compound. Input: CCOc1cc2ncc(C#N)c(Nc3ccc(OCc4ccccn4)c(Cl)c3)c2cc1NC(=O)/C=C/[C@H]1CCCN1C [PYROTINIB, pyrotinib, reference compound]
38.3

###

Give measured Tmax for each item. Keep answers brief.
run_description: Pharmacokinetics in SD rats, single intravenous injection and oral administration
Assay type: in vivo, SD rat
condition_label: SD, rat, whole blood, PO 10 mg/kg, NA: Exposure was too low to be counted
Be sure to follow the number with its unit.

Look over these answered cases.
Returns the measured Tmax for the input compound. Input: CCOc1cc2ncc(C#N)c(Nc3ccc(OCc4ccccn4)c(Cl)c3)c2cc1NC(=O)/C=C/[C@H]1CCCN1C [PYROTINIB, pyrotinib, reference compound]
4.33 h

Returns the measured Tmax for the input compound. Input: CN1CCC[C@H]1/C=C/C(=O)Nc1ccc2ncnc(Nc3ccc(OCc4ccccn4)c(Cl)c3)c2c1 [Control compound 2, reference compound]
0.25 h

Okay, now this compound:
Returns the measured Tmax for the input compound. Input: COc1c(NC(=O)/C=C/[C@H]2CCCN2C(C)C)ccc2ncnc(Nc3ccc(OCc4ccccn4)c(Cl)c3)c12
5.33 h

###

Give measured bioavailability for each item. Keep answers brief.
run_description: Pharmacokinetics in SD rats, single intravenous injection and oral administration
Type: in vivo, SD rat
condition_label: SD, rat, whole blood, PO 10 mg/kg vs IV 3 mg/kg, NA: Exposure was too low to be counted, read-out: F % (bioavailability)

Returns the measured bioavailability for the input molecule. Input: CCCOc1c(NC(=O)/C=C/[C@H]2CCCN2C)ccc2ncnc(Nc3ccc(OCc4ccccn4)c(Cl)c3)c12 [Example 13]
23.3%

Returns the measured bioavailability for the input molecule. Input: CCN1CCC[C@@H]1/C=C/C(=O)Nc1ccc2ncnc(Nc3ccc(OCc4ccccn4)c(Cl)c3)c2c1OC [Example 29]
36.3%

Returns the measured bioavailability for the input molecule. Input: CCOc1cc2ncc(C#N)c(Nc3ccc(OCc4ccccn4)c(Cl)c3)c2cc1NC(=O)/C=C/[C@H]1CCCN1C [PYROTINIB, pyrotinib, reference compound]
10.1%

Okay, now this molecule:
Returns the measured bioavailability for the input molecule. Input: COc1c(NC(=O)/C=C/[C@H]2CCCN2C)ccc2ncnc(Nc3ccc(OCc4ccccn4)c(Cl)c3)c12 [Example 4]
27.6%

###

Give measured AUC(0-inf) for each item. Keep answers brief.
run_description: Pharmacokinetics in SD rats, single intravenous injection and oral administration
Assay type: in vivo, SD rat
condition_label: SD, rat, whole blood, PO 10 mg/kg, NA: Exposure was too low to be counted
Answers are plain numbers, in ng·h/mL.

Look over these answered cases.
Returns the measured AUC(0-inf) for the input compound. Input: COCCCOc1c(NC(=O)/C=C/[C@H]2CCCN2C)ccc2ncnc(Nc3ccc(OCc4ccccn4)c(Cl)c3)c12
1110

Returns the measured AUC(0-inf) for the input compound. Input: COc1c(NC(=O)/C=C/[C@H]2CCCN2C)ccc2ncnc(Nc3ccc(OCc4ccccn4)c(Cl)c3)c12
902

Batch request: AUC(0-inf) per item, same order as input.
1. CCCOc1c(NC(=O)/C=C/[C@H]2CCCN2C)ccc2ncnc(Nc3ccc(OCc4ccccn4)c(Cl)c3)c12
2. CN1CCC[C@H]1/C=C/C(=O)Nc1ccc2ncnc(Nc3ccc(OCc4ccccn4)c(Cl)c3)c2c1 [Control compound 2, reference compound]

1. 750
2. 23.8

Batch request: AUC(0-inf) per item, same order as input.
1. CCN1CCC[C@@H]1/C=C/C(=O)Nc1ccc2ncnc(Nc3ccc(OCc4ccccn4)c(Cl)c3)c2c1OC
2. CCOc1cc2ncc(C#N)c(Nc3ccc(OCc4ccccn4)c(Cl)c3)c2cc1NC(=O)/C=C/[C@H]1CCCN1C [PYROTINIB, pyrotinib, reference compound]
3. COc1c(NC(=O)/C=C/[C@H]2CCCN2C(C)C)ccc2ncnc(Nc3ccc(OCc4ccccn4)c(Cl)c3)c12
4. CCOc1cc2ncc(C#N)c(Nc3ccc(OCc4ccccn4)c(Cl)c3)c2cc1NC(=O)/C=C/CN(C)C [NERATINIB, neratinib, reference compound]

1: 1130; 2: 2810; 3: 1470; 4: 1470

###

run_description: Pharmacokinetics in SD rats, single intravenous injection and oral administration
Type: in vivo, SD rat
condition_label: SD, rat, in vivo, IV 3 mg/kg
Protocol: In this assay, the pharmacokinetic characteristics of the compounds of the present application were assayed after administration of some of the compounds of the present application to SD rats by single oral administration and intravenous injection. 1. […] The mixture was stirred, vortexed and/or sonicated. […] The supernatant was diluted 2-fold with ultra-pure water, and the samples were analyzed by LC/MS. Pharmacokinetic parameters was calculated using WinNonlin software. […]
quantity: AUC(0-t) (ng·h/mL)
Numbers only, in ng·h/mL.

Returns the measured AUC(0-t) for the input compound. Input: CCOc1cc2ncc(C#N)c(Nc3ccc(OCc4ccccn4)c(Cl)c3)c2cc1NC(=O)/C=C/CN(C)C [NERATINIB, neratinib, reference compound]
2390

Data origin: patent US20240246934A1
